Entries and their measured glycan array binding signal (z-score) follow.
# target_or_system: Fuc(a1-2)[Gal(a1-3)]Gal(b1-4)[Fuc(a1-3)]GlcNAc(b1-3)GalNAc
# assay_remarks: glycan array binding signal (z-score within array); higher = stronger binding
# experimental_context: glycan notation: IUPAC condensed, linker removed
The sample as a whole holds a higher share of the strongest signals than the screen did.
reported_property: glycan array binding signal (z-score)

binder | observed_value
rCnSL-A (Clitocybe nebularis) (protein) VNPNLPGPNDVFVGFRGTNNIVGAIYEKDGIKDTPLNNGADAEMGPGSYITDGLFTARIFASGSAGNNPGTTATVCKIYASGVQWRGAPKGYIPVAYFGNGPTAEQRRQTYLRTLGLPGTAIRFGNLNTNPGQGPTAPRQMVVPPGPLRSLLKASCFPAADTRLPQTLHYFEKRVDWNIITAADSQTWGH | -0.339
PILRa (Homo sapiens), Q9UKJ1 (protein) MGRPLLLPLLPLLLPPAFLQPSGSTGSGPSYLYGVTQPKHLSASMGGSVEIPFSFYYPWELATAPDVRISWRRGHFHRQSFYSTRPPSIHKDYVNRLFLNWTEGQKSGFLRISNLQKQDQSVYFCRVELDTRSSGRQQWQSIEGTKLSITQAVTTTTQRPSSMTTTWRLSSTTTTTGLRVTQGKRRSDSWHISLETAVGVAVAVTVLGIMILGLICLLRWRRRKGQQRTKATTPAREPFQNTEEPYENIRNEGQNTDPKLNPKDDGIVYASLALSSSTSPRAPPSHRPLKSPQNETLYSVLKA | 3.41
GNA (Galanthus nivalis), P30617 (protein) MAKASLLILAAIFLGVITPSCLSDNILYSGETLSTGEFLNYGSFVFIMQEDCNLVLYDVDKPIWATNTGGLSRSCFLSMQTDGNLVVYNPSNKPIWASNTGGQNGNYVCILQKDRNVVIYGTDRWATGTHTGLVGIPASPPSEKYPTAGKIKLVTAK | -0.127
DrGRIFIN (Danio rerio), Q6DGJ1 (protein) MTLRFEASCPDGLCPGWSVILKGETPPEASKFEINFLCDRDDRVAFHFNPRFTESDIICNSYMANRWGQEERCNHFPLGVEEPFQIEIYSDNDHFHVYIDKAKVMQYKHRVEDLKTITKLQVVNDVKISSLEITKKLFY | -0.062
Gal 12 (Homo sapiens), Q96DT0 (protein) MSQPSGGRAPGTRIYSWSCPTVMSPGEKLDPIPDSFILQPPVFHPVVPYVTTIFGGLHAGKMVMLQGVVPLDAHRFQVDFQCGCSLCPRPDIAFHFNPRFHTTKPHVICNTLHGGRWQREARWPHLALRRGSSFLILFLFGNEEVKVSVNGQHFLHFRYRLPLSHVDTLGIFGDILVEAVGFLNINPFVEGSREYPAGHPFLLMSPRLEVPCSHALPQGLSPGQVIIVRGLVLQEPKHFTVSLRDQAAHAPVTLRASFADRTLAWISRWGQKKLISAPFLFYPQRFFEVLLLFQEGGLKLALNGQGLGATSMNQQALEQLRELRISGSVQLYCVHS | 4.56

The measured values listed here are drawn from the supplement of paper PMC8728848.
